- system tested: human TLR8 (Homo sapiens, UniProt Q9NR97)
- Construct: host or cells: HEK-Blue hTLR8 cells (HEK293-derived reporter line; that the line is stably transfected with the human TLR8 gene is own knowledge of the vendor's product)
- Sequence (Q9NR97 27-1041): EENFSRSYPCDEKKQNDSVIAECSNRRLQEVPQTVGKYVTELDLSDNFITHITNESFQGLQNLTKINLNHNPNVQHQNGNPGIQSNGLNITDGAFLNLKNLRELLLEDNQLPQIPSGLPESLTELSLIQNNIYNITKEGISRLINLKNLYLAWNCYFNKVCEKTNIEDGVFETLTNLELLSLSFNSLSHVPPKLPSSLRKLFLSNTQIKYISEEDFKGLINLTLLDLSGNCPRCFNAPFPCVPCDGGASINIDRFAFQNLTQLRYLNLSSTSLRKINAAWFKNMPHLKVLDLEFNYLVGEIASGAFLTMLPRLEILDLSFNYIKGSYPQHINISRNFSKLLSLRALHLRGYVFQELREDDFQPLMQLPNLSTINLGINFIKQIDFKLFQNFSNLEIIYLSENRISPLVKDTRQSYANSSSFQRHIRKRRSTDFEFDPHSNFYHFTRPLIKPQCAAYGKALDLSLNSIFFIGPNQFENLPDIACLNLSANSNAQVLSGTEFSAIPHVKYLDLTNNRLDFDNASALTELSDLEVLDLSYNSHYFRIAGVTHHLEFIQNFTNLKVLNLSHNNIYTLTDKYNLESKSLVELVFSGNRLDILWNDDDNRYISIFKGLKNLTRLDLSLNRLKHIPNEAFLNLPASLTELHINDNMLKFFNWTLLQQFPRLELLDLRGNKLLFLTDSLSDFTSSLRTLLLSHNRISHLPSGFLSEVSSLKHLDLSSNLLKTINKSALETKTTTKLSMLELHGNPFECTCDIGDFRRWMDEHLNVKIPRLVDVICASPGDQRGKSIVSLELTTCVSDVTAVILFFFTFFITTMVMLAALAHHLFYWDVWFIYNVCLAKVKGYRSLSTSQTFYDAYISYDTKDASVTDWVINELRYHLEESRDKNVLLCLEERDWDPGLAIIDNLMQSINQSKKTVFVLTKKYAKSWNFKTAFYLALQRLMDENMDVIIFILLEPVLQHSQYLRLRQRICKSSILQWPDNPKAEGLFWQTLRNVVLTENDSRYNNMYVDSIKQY
- experiment summary: Agonistic activity of compounds on HEK-Blue hTLR8 cells (QUANTI-Blue reporter, OD620)
- Assay type: cell-based
- measurement parameters: HEK-Blue hTLR8 cells; OD620 at which the activation effect reached the maximum
property: Emax (OD620)

Record excerpt, results attached:
compound structure string | uom | result value
CCCCc1nc2c(N)nc3ccsc3c2n1CCCCN | OD620 | 1.37
CCCCc1nc2c(N)nc3cc(C4CCNCC4)sc3c2n1CC1CCOCC1 | OD620 | 0.67
CCCCc1nc2c(N)nc3cc(C4CCN(C)CC4)sc3c2[nH]1 | OD620 | 1.11
CCCCc1nc2c(N)nc3cc(C)sc3c2n1CCCCN | OD620 | 1.43

I = CCCCc1nc2c(N)nc3ccsc3c2n1CC1CCN(C)CC1
II = CCCCc1nc2c(N)nc3cc(C)sc3c2n1CC1CCNCC1
Req: Just tell me: smaller Emax value, I or II ? Write down the label attached to your selection.
Resp: I
(I: 0.84 OD620, II: 1.86 OD620)
